# assayed target: human orexin-2 receptor (OX2R) (Homo sapiens, UniProt O43614)
# protocol: Human OX2R IP1 assay
# particulars: T-Rex CHO cells stably overexpressing the human orexin-2 receptor; IP1 accumulation, 1 hr at 37 degrees C

{"compound": "O=C(N[C@H]1CCCN2C(=O)COc3ccccc3C3CCC(CC3)OCC12)C1CCCCO1 (stereo partly drawn)", "EC50": "> 1000 nM"}
{"compound": "O=C(N[C@H]1CCCN2C(=O)COc3ccccc3[C@H]3CC[C@H](CC3)OC[C@@H]12)C1COC1", "EC50": "< 100 nM"}
{"compound": "O=C(N[C@H]1CCCN2C(=O)COc3ccccc3C3CCC(CC3)OC[C@@H]12)C1CCO1 (stereo in doubt) [Compound 12]", "EC50": "< 100 nM"}
{"compound": "CN1CCCC1C(=O)N[C@H]1CCCN2C(=O)COc3ccccc3C3CCC(CC3)OCC12 (stereo partly drawn) [Compound 24]", "EC50": "> 1000 nM"}
{"compound": "CN1CCC1C(=O)N[C@H]1CCCN2C(=O)COc3ccccc3C3CCC(CC3)OCC12 (stereo partly drawn) [Compound 23]", "EC50": "> 1000 nM"}
{"compound": "O=C(N[C@H]1CCCN2C(=O)COc3ccccc3C3CCC(CC3)OC[C@@H]12)C1CCCO1 (stereo in doubt)", "EC50": "< 100 nM"}
{"compound": "O=C(N[C@H]1CCCN2C(=O)COc3ccccc3C3CCC(CC3)OC[C@@H]12)C1CCO1 (stereo in doubt) [Compound 9]", "EC50": "100 to 1000 nM"}
{"compound": "CN1CCOC(C(=O)N[C@H]2CCCN3C(=O)COc4ccccc4C4CCC(CC4)OCC23)C1 (stereo partly drawn) [Compound 21]", "EC50": "> 1000 nM"}
{"compound": "O=C(N[C@H]1CCCN2C(=O)COc3ccccc3C3CCC(CC3)OC[C@@H]12)C1CCCCO1 (stereo in doubt)", "EC50": "< 100 nM"}
{"compound": "COC1(C(=O)N[C@H]2CCCN3C(=O)COc4ccccc4[C@H]4CC[C@H](CC4)OC[C@@H]23)CC1", "EC50": "> 1000 nM"}
{"compound": "Cc1ccnc2c1C1CCC(CC1)OCC1[C@@H](NC(=O)C3CCCO3)CCCN1C(=O)CO2 (stereo partly drawn)", "EC50": "< 100 nM"}
{"compound": "O=C(N[C@H]1CCCN2C(=O)COc3ccccc3C3CCC(CC3)OC[C@@H]12)C1CCOC1 (stereo in doubt) [Compound 5]", "EC50": "100 to 1000 nM"}

====

# assayed target: human orexin-2 receptor (OX2R) (Homo sapiens, UniProt O43614)
# Sequence (O43614 1-444): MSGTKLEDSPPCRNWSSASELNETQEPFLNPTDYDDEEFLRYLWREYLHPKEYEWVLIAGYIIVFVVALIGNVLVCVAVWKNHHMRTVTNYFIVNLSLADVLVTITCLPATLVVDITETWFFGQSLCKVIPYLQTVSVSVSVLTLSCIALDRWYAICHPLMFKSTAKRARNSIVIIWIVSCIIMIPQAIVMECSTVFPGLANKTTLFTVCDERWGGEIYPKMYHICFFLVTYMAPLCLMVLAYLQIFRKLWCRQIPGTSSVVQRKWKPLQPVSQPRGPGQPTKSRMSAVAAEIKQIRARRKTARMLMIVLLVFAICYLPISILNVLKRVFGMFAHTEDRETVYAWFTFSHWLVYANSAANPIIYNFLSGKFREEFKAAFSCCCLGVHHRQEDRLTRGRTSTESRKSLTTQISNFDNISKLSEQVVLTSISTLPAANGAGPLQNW
# protocol: Human OX2R IP1 assay
# particulars: T-Rex CHO cells stably overexpressing the human orexin-2 receptor; IP1 accumulation, 1 hr at 37 degrees C
measured quantity: EC50

{"molecule": "COCC(=O)N[C@H]1CCCN2C(=O)COc3ccccc3[C@H]3CC[C@H](CC3)OC[C@@H]12 (stereo in doubt)", "assayed target": "human orexin-2 receptor (OX2R) (Homo sapiens, UniProt O43614)", "measured quantity": "EC50", "assay result": "< 100 nM"}
{"molecule": "Cc1cccc2c1C1CCC(CC1)OC[C@H]1[C@@H](NC(=O)C3CCCO3)CCCN1C(=O)CO2 (stereo in doubt)", "assayed target": "human orexin-2 receptor (OX2R) (Homo sapiens, UniProt O43614)", "measured quantity": "EC50", "assay result": "< 100 nM"}
{"molecule": "CN1CCOC(C(=O)N[C@H]2CCCN3C(=O)COc4ccccc4C4CCC(CC4)OCC23)C1 (stereo partly shown) [Compound 25]", "assayed target": "human orexin-2 receptor (OX2R) (Homo sapiens, UniProt O43614)", "measured quantity": "EC50", "assay result": "> 1000 nM"}
{"molecule": "CN1CCC1C(=O)N[C@H]1CCCN2C(=O)COc3ccccc3C3CCC(CC3)OCC12 (stereo partly shown) [Compound 19]", "assayed target": "human orexin-2 receptor (OX2R) (Homo sapiens, UniProt O43614)", "measured quantity": "EC50", "assay result": "> 1000 nM"}
{"molecule": "O=C(N[C@H]1CCCN2C(=O)COc3ccccc3C3CCC(CC3)OC[C@@H]12)C1CCCOC1 (stereo in doubt) [Compound 4]", "assayed target": "human orexin-2 receptor (OX2R) (Homo sapiens, UniProt O43614)", "measured quantity": "EC50", "assay result": "100 to 1000 nM"}
{"molecule": "Cc1ccnc2c1C1CCC(CC1)OC[C@H]1[C@@H](NC(=O)C3CCCO3)CCCN1C(=O)CO2 (stereo in doubt)", "assayed target": "human orexin-2 receptor (OX2R) (Homo sapiens, UniProt O43614)", "measured quantity": "EC50", "assay result": "< 100 nM"}
{"molecule": "CN(C)C(=O)C(=O)N[C@H]1CCCN2C(=O)COc3ccccc3[C@H]3CC[C@H](CC3)OC[C@@H]12", "assayed target": "human orexin-2 receptor (OX2R) (Homo sapiens, UniProt O43614)", "measured quantity": "EC50", "assay result": "< 100 nM"}

====

# assayed target: UniProtKB O43614
# protocol: Human OX2R IP1 assay
# particulars: T-Rex CHO cells stably overexpressing the human orexin-2 receptor; IP1 accumulation, 1 hr at 37 degrees C
# Procedure: T-Rex CHO cells stably overexpressing the human orexin-2 receptor (OX2R) were induced overnight with 1 μg/mL of doxycycline in a T225 flask. 24 hours post induction, cells were lifted with accutase and plated into a 384-well proxy plate at 30,000 cells/well. […] The plates were allowed to incubate for 1 hour at room temperature and were then read in the ENVISION® multimode plate reader, measuring inositol phosphate levels. […]
Listing of entries alongside the reported EC50.
measured quantity: EC50

{"molecule": "O=C(N[C@H]1CCCN2C(=O)COc3ccccc3[C@H]3CC[C@H](CC3)OC[C@@H]12)c1ncco1 [Compound 18]", "assay result": "> 1000 nM"}
{"molecule": "Cc1cccc2c1C1CCC(CC1)OCC1[C@@H](NC(=O)C3CCCO3)CCCN1C(=O)CO2 (stereo partly shown) [Compound 15]", "assay result": "< 100 nM"}
{"molecule": "O=C(N[C@H]1CCCN2C(=O)COc3ccccc3C3CCC(CC3)OC[C@@H]12)C1CCOC1 (stereo in doubt) [Compound 6]", "assay result": "100 to 1000 nM"}
{"molecule": "O=C(N[C@H]1CCCN2C(=O)COc3ccccc3C3CCC(CC3)OC[C@@H]12)C1COCCO1 (stereo in doubt) [Compound 1]", "assay result": "< 100 nM"}
{"molecule": "CN1CCCC1C(=O)N[C@H]1CCCN2C(=O)COc3ccccc3C3CCC(CC3)OCC12 (stereo partly shown) [Compound 22]", "assay result": "> 1000 nM"}
{"molecule": "O=C(N[C@H]1CCCN2C(=O)COc3ccccc3C3CCC(CC3)OC[C@@H]12)C1CCCOC1 (stereo in doubt) [Compound 11]", "assay result": "100 to 1000 nM"}
{"molecule": "O=C(N[C@H]1CCCN2C(=O)COc3ccccc3C3CCC(CC3)OC[C@@H]12)C1COCCO1 (stereo in doubt) [Compound 8]", "assay result": "100 to 1000 nM"}
